Target: F876L mutant Androgen Receptor (AR-F876L) (Homo sapiens (Human), UniProt P10275, F877L)
Sequence (P10275 whole entry F877L): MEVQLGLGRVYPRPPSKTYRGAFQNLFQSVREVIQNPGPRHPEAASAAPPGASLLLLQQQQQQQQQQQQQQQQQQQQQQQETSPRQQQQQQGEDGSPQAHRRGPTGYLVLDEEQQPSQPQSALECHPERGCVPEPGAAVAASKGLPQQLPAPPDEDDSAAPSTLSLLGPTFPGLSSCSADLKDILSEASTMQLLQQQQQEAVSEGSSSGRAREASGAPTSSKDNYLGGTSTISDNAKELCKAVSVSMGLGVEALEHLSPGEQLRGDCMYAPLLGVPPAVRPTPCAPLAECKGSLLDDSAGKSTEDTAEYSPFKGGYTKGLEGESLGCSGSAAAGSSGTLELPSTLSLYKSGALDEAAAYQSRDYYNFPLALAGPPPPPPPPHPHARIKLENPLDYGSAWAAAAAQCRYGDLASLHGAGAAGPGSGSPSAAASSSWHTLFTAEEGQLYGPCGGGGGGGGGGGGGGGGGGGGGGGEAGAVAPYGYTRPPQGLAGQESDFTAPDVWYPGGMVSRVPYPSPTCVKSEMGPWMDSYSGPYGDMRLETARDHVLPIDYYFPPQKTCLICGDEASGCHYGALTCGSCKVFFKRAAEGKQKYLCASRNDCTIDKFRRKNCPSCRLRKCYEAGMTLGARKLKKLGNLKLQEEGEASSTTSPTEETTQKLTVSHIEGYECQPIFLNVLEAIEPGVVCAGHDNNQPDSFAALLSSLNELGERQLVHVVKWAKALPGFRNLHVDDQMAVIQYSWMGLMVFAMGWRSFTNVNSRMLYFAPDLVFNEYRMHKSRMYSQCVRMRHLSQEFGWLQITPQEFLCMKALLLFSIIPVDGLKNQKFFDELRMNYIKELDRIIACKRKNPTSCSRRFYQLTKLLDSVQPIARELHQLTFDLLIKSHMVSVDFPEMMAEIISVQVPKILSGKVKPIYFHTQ
Assay: LNCaP-AR-F876L AG reporter assay (agonist mode)
Assay type: cell-based
Settings: maximum % stimulation (agonist response) over the tested concentration range; read-out: LNCaP-AR-F876L AG MAX % Stim
Answer each item with its documented Emax.
The reply should consist of the numeric value with the unit placed after it.

Look over these answered cases.
| MOLECULE | STUDY TARGET | MEASURED |
| --- | --- | --- |
| N#Cc1ncc(N2C(=O)C3(CCC3)N(c3ccc(OC4CCN5CCCC5C4)cc3)C2=S)cc1C(F)(F)F (stereo not shown) [Cpd 156] | F876L mutant Androgen Receptor (AR-F876L) (Homo sapiens (Human), UniProt P10275, F877L) | 0.9% |
| Cc1cc(N2C(=O)C3(CCC3)N(c3ccc(OC4CCNCC4)nc3)C2=S)cnc1C#N [Cpd 87] | F876L mutant Androgen Receptor (AR-F876L) (Homo sapiens (Human), UniProt P10275, F877L) | 0.1% |
| CC(C)(C)CCN1CCC(Oc2ccc(N3C(=S)N(c4cnc(C#N)c(C(F)(F)F)c4)C(=O)C34CCC4)cc2)CC1 [Cpd 34] | F876L mutant Androgen Receptor (AR-F876L) (Homo sapiens (Human), UniProt P10275, F877L) | 0.2% |
| COCCn1cc2cc(N3C(=S)N(c4cnc(C#N)c(OC)c4)C(=O)C34CCC4)ccc2n1 [Cpd 175] | F876L mutant Androgen Receptor (AR-F876L) (Homo sapiens (Human), UniProt P10275, F877L) | 0% |
| N#Cc1ncc(N2C(=O)C3(CCC3)N(c3ccc(O[C@H]4CCNC[C@H]4F)cc3)C2=S)cc1C(F)(F)F (racemic) [Cpd 96] | F876L mutant Androgen Receptor (AR-F876L) (Homo sapiens (Human), UniProt P10275, F877L) | 0.4% |

Could I get Emax for every one of these entries?
1. CN1CCC(Oc2ccc(N3C(=S)N(c4cnc(C#N)c(C(F)F)c4)C(=O)C34CCC4)cc2)CC1 [Cpd 41]
2. Cl.N#Cc1ncc(N2C(=O)C3(CCC3)N(c3cnc(OC4CCNCC4)nc3)C2=S)cc1C(F)(F)F [Cpd 141]

1: 0.1%; 2: 0%

* * *

Assign Emax to each entry below.
Molecular target: wild-type Androgen Receptor (AR-wt) (Homo sapiens (Human), UniProt P10275)
Sequence (P10275 whole entry): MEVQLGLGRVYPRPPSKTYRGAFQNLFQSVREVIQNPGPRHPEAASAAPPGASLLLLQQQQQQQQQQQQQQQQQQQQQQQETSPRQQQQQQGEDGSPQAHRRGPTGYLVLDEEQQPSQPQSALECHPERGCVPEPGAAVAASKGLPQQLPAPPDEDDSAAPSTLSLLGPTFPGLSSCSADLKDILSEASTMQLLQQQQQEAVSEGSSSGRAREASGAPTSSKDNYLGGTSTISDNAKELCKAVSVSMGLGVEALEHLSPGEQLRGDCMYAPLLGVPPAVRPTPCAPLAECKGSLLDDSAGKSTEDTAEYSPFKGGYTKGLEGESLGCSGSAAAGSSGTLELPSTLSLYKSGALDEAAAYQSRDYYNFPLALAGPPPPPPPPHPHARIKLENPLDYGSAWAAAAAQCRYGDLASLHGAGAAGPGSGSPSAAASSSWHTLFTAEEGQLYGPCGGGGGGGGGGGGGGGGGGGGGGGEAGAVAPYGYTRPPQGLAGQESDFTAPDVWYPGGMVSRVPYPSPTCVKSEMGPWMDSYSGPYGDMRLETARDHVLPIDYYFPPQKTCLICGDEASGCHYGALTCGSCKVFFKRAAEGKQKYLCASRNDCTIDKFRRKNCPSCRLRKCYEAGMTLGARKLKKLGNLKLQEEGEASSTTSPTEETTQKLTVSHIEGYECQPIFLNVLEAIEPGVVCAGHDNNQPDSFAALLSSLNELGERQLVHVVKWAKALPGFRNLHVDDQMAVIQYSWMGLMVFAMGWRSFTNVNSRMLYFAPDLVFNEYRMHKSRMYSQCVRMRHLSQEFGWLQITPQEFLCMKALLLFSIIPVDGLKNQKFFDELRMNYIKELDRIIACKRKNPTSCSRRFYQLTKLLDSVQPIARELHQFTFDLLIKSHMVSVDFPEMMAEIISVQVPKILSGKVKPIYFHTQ
Experiment: LNCaP-AR-wt ANT reporter assay (antagonist mode)
Type: cell-based
Settings: maximum % inhibition of R1881 control response over the tested concentration range; read-out: LNCaP-AR-wt ANT MAX % Inh
Answers without a unit are incomplete; give the number and then its unit.

Examples with their reported Emax follow.
| COMPOUND | STUDY TARGET | Emax |
| --- | --- | --- |
| N#Cc1ncc(N2C(=O)C3(CCC3)N(c3ccc(C4=C[C@@H](O)[C@H](O)CO4)cc3)C2=S)cc1C(F)(F)F | wild-type Androgen Receptor (AR-wt) (Homo sapiens (Human), UniProt P10275) | 102% |
| N#Cc1ncc(N2C(=O)C3(CCC3)N(c3ccc(O[C@H]4C[C@H]5CC[C@@H](C4)N5)cc3)C2=S)cc1C(F)(F)F | wild-type Androgen Receptor (AR-wt) (Homo sapiens (Human), UniProt P10275) | 91.5% |

With those in mind, consider the next compound.
Emax for CN1CCC(Oc2ccc(N3C(=S)N(c4cnc(C#N)c(C(F)(F)F)c4)C(=O)C34CCC4)cc2)CC12CCC2 (racemic) ?
104%

* * *

Target: F876L mutant Androgen Receptor (AR-F876L) (Homo sapiens (Human), UniProt P10275, F877L)
Assay: LNCaP-AR-F876L ANT reporter assay (antagonist mode)
Assay type: cell-based
Details: antagonist mode; pIC50 = −Log10(IC50 in Molar); read-out: LNCaP-AR-F876L ANT pIC50 (converted)
REPORTED PROPERTY: IC50

Observe how each entry below is paired with its result.
| COMPOUND | STUDY TARGET | REPORTED PROPERTY | MEASURED |
| --- | --- | --- | --- |
| CCOC(=O)N1CCN(Cc2ccc(N3C(=S)N(c4cnc(C#N)c(C(F)(F)F)c4)C(=O)C34CCC4)cc2)CC1 [Cpd 55] | F876L mutant Androgen Receptor (AR-F876L) (Homo sapiens (Human), UniProt P10275, F877L) | IC50 | 40.7 nM |
| N#Cc1ncc(N2C(=O)C3(CCC3)N(c3ccc4c(ccn4C4CCNCC4)c3)C2=S)cc1C(F)(F)F [Cpd 249] | F876L mutant Androgen Receptor (AR-F876L) (Homo sapiens (Human), UniProt P10275, F877L) | IC50 | 316 nM |
| COc1cc(N2C(=O)C3(CCC3)N(c3ccc(OC4CCNCC4)nc3)C2=S)cnc1C#N [Cpd 75] | F876L mutant Androgen Receptor (AR-F876L) (Homo sapiens (Human), UniProt P10275, F877L) | IC50 | 89.1 nM |

Would you mind giving IC50 for every compound in the list below?
1. CN1CCC[C@H](Oc2ccc(N3C(=S)N(c4cnc(C#N)c(C(F)(F)F)c4)C(=O)C34CCC4)cc2)C1 [Cpd 20]
2. N#CCN1CCC(Oc2ccc(N3C(=S)N(c4cnc(C#N)c(C(F)(F)F)c4)C(=O)C34CCC4)cn2)CC1 [Cpd 60]

["513 nM", "9.55 nM"]

Consider the following items and state reported IC50 for each.
1. N#Cc1ncc(N2C(=O)C3(CCC3)N(c3ccc(OC4CCN(CCCF)CC4)cc3)C2=S)cc1C(F)(F)F [Cpd 14]
2. COc1cc(N2C(=O)C3(CCC3)N(c3ccc4c(cnn4CCO)c3)C2=S)cnc1C#N [Cpd 167]
3. N#Cc1ncc(N2C(=O)C3(CCC3)N(c3ccc(OC4CC5CCC(N5)C4F)cc3)C2=S)cc1C(F)(F)F (centres unmarked) [Cpd 93]

["234 nM", "288 nM", "45.7 nM"]

* * *

Provide the recorded Emax for the entries that follow.
Target: F876L mutant Androgen Receptor (AR-F876L) (Homo sapiens (Human), UniProt P10275, F877L)
Assay: LNCaP-AR-F876L ANT reporter assay (antagonist mode)
Type: cell-based
Details: maximum % inhibition of R1881 control response over the tested concentration range; read-out: LNCaP-AR-F876L ANT MAX % Inh
Give bare numbers, in %.

Example entries and their recorded answers appear below.
| COMPOUND | REPORTED PROPERTY | READOUT UNIT | MEASURED |
| --- | --- | --- | --- |
| N#Cc1ncc(N2C(=O)C3(CCC3)N(c3ccc(O)nc3)C2=S)cc1C(F)(F)F | Emax | % | 99 |
| COCCN1CCC(Oc2ccc(N3C(=S)N(c4cnc(C#N)c(C(F)(F)F)c4)C(=O)C34CCC4)cn2)CC1 | Emax | % | 98.8 |
| N#Cc1ncc(N2C(=O)C3(CCC3)N(c3ccc(OC4CCC(N)CC4)cc3)C2=S)cc1C(F)(F)F (stereo not drawn) | Emax | % | 99.7 |

For every item below, please supply its Emax.
1. CN1CC[C@@H](Oc2ccc(N3C(=S)N(c4cnc(C#N)c(C(F)(F)F)c4)C(=O)C34CCC4)cc2)C[C@H]1C(F)(F)F (racemic)
2. COc1ccc(N2C(=S)N(c3cnc(C#N)c(C(F)(F)F)c3)C(=O)C23CCC3)cn1
3. N#Cc1ncc(N2C(=O)C3(CCC3)N(c3ccc(OCC4(N)COC4)cc3)C2=S)cc1C(F)(F)F
4. N#Cc1ncc(N2C(=O)C3(CCC3)N(c3ccc(OC4CCCO4)cc3)C2=S)cc1C(F)(F)F (stereo not drawn)
5. COc1cc(N2C(=S)N(c3cnc(C#N)c(C)c3)C(=O)C23CCC3)ccc1-c1ccc(C)o1
6. CN1[C@@H]2CC[C@H]1C[C@H](Oc1ccc(N3C(=S)N(c4cnc(C#N)c(C(F)(F)F)c4)C(=O)C34CCC4)cc1)C2
7. CN1CCC[C@H](CNC(=O)c2ccc(N3C(=S)N(c4cnc(C#N)c(C(F)(F)F)c4)C(=O)C34CCC4)cc2)C1
8. N#Cc1ncc(N2C(=O)C3(CCC3)N(c3ccc4nn(C5CCNCC5)cc4c3)C2=S)cc1Cl

[95.6, 100, 98.8, 101, 90.3, 98.9, 99.6, 104]

* * *

Exercise: for every item that follows, state its recorded Emax.
Biological target: F876L mutant Androgen Receptor (AR-F876L) (Homo sapiens (Human), UniProt P10275, F877L)
Assay: LNCaP-AR-F876L AG reporter assay (agonist mode)
Format: cell-based
Settings: agonist mode; maximum % stimulation over tested concentration range; read-out: LNCaP-AR-F876L AG MAX % Stim
Answers are plain numbers, in %.

These solved cases illustrate the format of a correct answer.
| COMPOUND | MEASURED |
| --- | --- |
| Cn1cnc2cc(N3C(=S)N(c4cnc(C#N)c(C(F)(F)F)c4)C(=O)C34CCC4)ccc21 | -0.5 |
| N#Cc1ncc(N2C(=O)C3(CCC3)N(c3ccc(O[C@H]4CCN[C@H](CO)C4)cc3)C2=S)cc1C(F)(F)F (racemic) | 0.2 |
| N#Cc1ncc(N2C(=O)C3(CCC3)N(c3ccc(CN4CCN(C5CC5)CC4)cc3)C2=S)cc1C(F)(F)F | 0.1 |
| Cc1cc(N2C(=O)C3(CCC3)N(c3cnc(OC4CCN(CCO)CC4)nc3)C2=S)cnc1C#N | 0.4 |
| CN(C)C1(COc2ccc(N3C(=S)N(c4cnc(C#N)c(C(F)(F)F)c4)C(=O)C34CCC4)cc2)COC1 | 0 |
| N#Cc1ncc(N2C(=O)C3(CCC3)N(c3ccc(C4CNCCO4)cc3)C2=S)cc1C(F)(F)F (stereo not shown) | 0.7 |

// switching to the query compound
Emax lookup needed for N#Cc1ncc(N2C(=O)C3(CCC3)N(c3ccc(OC4CCNC5(CCC5)C4)nc3)C2=S)cc1C(F)(F)F (racemic) , thanks.
0.3
